# assay-procedure: qHTS assay to identify small molecule agonists of H2AX - cell viability counter screen (AID 1224847);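 also: wild-type CHO-K1 cells; top concentration of the series differs between compounds; nearly all actives have a fitted effect of over 30% in size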
# condition-label: CHO-K1 viability, CellTiter-Glo luminescence, 3 h; series mostly up to 154 µM
Inconclusive results are not listed. The source made the active and inactive calls. Calls follow the shape of the full dose curve.
reported-metric: activity change, negative = cytotoxicity

Q: May I ask what activity change, negative = cytotoxicity has been recorded for OCCN(CCO)c1ccccc1 ?
A: inactive

Q: // lookup activity change, negative = cytotoxicity for CC[C@H]1CC[C@H](NCc2cc3c(cc2OC)[C@H]2C[C@H]2C(=O)N3C)[C@H](c2ccccc2)N1
A: inactive

Q: # lookup: activity change, negative = cytotoxicity of CN1CCN(C2=Nc3ccccc3Oc3ccc(Cl)cc32)CC1
A: inactive
